System: 743489-274-T-PDC complex spheroid growth
test_description: Anticancer human tumor 743489-274-T-PDC patient-derived renal cell carcinoma cell line growth inhibition [AhR]
measurement_parameters: second compound 10 µM; first compound 0.1 µM; active compounds read low
Documented viability, T/C across a set of compounds

Examples from the recorded data:
O=C(c1cc(Cc2n[nH]c(=O)c3ccccc23)ccc1F)N1CCN(C(=O)C2CC2)CC1 + Cc1ccccc1N=Nc1ccc(NC(=O)c2ccnn2C)c(C)c1; 110%
CC1(C)CCC(CN2CCN(c3ccc(C(=O)NS(=O)(=O)c4ccc(NCC5CCOCC5)c([N+](=O)[O-])c4)c(Oc4cnc5[nH]ccc5c4)c3)CC2)=C(c2ccc(Cl)cc2)C1 + CC(CO)NC(=O)c1cc(-c2ccc(Cl)cc2)nn(-c2cnn(C)c2)c1=O; 112%

Just so you know, measured viability, T/C for CC[C@@]1(O)C(=O)OCc2c1cc1n(c2=O)Cc2cc3c(CN(C)C)c(O)ccc3nc2-1 + Cc1cncc(-c2nc(NCCc3c[nH]c4ccccc34)c3ncn(C(C)C)c3n2)c1 came out at 114%

###

System: 743489-274-T-PDC complex spheroid growth
test_description: Anticancer human tumor 743489-274-T-PDC cell line growth inhibition [AhR]
measurement_parameters: second compound 1 µM; first compound 3 µM; active compounds read low
Collected viability, T/C values appear next to each entry.
Note: unit % is implicit; provide only the numeric part.

Recorded results for 5 compounds are shown here.
CCN(c1cc(-c2ccc(CN3CCOCC3)cc2)cc(C(=O)NCc2c(C)cc(C)[nH]c2=O)c1C)C1CCOCC1 + Cc1ccccc1N=Nc1ccc(NC(=O)c2ccnn2C)c(C)c1; 99.6
O=C(C=Cn1cnc(-c2cc(C(F)(F)F)cc(C(F)(F)F)c2)n1)NNc1cnccn1 + Cc1cncc(-c2nc(NCCc3c[nH]c4ccccc34)c3ncn(C(C)C)c3n2)c1; 104
CCN(c1cc(-c2ccc(CN3CCOCC3)cc2)cc(C(=O)NCc2c(C)cc(C)[nH]c2=O)c1C)C1CCOCC1 + Cc1cncc(-c2nc(NCCc3c[nH]c4ccccc34)c3ncn(C(C)C)c3n2)c1; 101
CCN(c1cc(-c2ccc(CN3CCOCC3)cc2)cc(C(=O)NCc2c(C)cc(C)[nH]c2=O)c1C)C1CCOCC1 + CC(CO)NC(=O)c1cc(-c2ccc(Cl)cc2)nn(-c2cnn(C)c2)c1=O; 106
O=C(C=Cn1cnc(-c2cc(C(F)(F)F)cc(C(F)(F)F)c2)n1)NNc1cnccn1 + CC(CO)NC(=O)c1cc(-c2ccc(Cl)cc2)nn(-c2cnn(C)c2)c1=O; 94.1

Memo: O=C(C=Cn1cnc(-c2cc(C(F)(F)F)cc(C(F)(F)F)c2)n1)NNc1cnccn1 + Cc1ccccc1N=Nc1ccc(NC(=O)c2ccnn2C)c(C)c1 , reported viability, T/C: 97.1

###

viability, T/C overview
Tested on: 743489-274-T-PDC complex spheroid growth
test_description: Anticancer human tumor 743489-274-T-PDC cell line growth inhibition [AhR];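 note: spheroids exposed to agents for 7 days before readout; 100% = DMSO vehicle control wells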
measurement_parameters: second compound 3.16 µM; first compound 3.16 µM; active compounds read low
Text: Multicellular complex tumor spheroid response to aryl hydrocarbon receptor antagonists in combination with a variety of drugs and investigational agents in selected tumor cell lines […] Compounds. […] If the clinical Cmax for an agent had not been determined, the highest concentration tested was 10 microM (Table 1). […]
Give the value in % but do not write % after it.

Examples with answers:
Nc1ccn(C2OC(CO)C(O)C2(F)F)c(=O)n1 (stereo unspecified) + Cc1ccccc1N=Nc1ccc(NC(=O)c2ccnn2C)c(C)c1; 50.8
O=C(c1cc(Cc2n[nH]c(=O)c3ccccc23)ccc1F)N1CCN(C(=O)C2CC2)CC1 + Cc1ccccc1N=Nc1ccc(NC(=O)c2ccnn2C)c(C)c1; 101
O=C(C=Cc1cccc(S(=O)(=O)Nc2ccccc2)c1)NO + Cc1ccccc1N=Nc1ccc(NC(=O)c2ccnn2C)c(C)c1; 50.7
COc1cc(Nc2ncc3c(n2)-c2ccc(Cl)cc2C(c2c(F)cccc2OC)=NC3)ccc1C(=O)O + CC(CO)NC(=O)c1cc(-c2ccc(Cl)cc2)nn(-c2cnn(C)c2)c1=O; 82
COc1cc(Nc2ncc3c(n2)-c2ccc(Cl)cc2C(c2c(F)cccc2OC)=NC3)ccc1C(=O)O + Cc1cncc(-c2nc(NCCc3c[nH]c4ccccc34)c3ncn(C(C)C)c3n2)c1; 90.1

Please examine the following record next.
// O=C(c1cc(Cc2n[nH]c(=O)c3ccccc23)ccc1F)N1CCN(C(=O)C2CC2)CC1 + CC(CO)NC(=O)c1cc(-c2ccc(Cl)cc2)nn(-c2cnn(C)c2)c1=O : viability, T/C value = 96.4

###

Test system: 743489-274-T-PDC complex spheroid growth
test_description: Anticancer human tumor 743489-274-T-PDC cell line growth inhibition [AhR]; active = viability on the fitted dose curve at most 10% of control; inactive = the rest;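 note: spheroids exposed to agents for 7 days before readout; 100% = DMSO vehicle control wells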
measurement_parameters: second compound 0.316 µM; first compound 0.3 µM
Classes to choose from: active, inactive

Past entries and their recorded results:
CC(C)CC(NC(=O)C(Cc1ccccc1)NC(=O)c1cnccn1)B(O)O (stereo unspecified) + CC(CO)NC(=O)c1cc(-c2ccc(Cl)cc2)nn(-c2cnn(C)c2)c1=O; active
CCc1c2c(nc3ccc(O)cc13)-c1cc3c(c(=O)n1C2)COC(=O)[C@]3(O)CC + CC(CO)NC(=O)c1cc(-c2ccc(Cl)cc2)nn(-c2cnn(C)c2)c1=O; inactive
O=C(C=Cn1cnc(-c2cc(C(F)(F)F)cc(C(F)(F)F)c2)n1)NNc1cnccn1 + CC(CO)NC(=O)c1cc(-c2ccc(Cl)cc2)nn(-c2cnn(C)c2)c1=O; inactive
CCc1c2c(nc3ccc(O)cc13)-c1cc3c(c(=O)n1C2)COC(=O)[C@]3(O)CC + Cc1cncc(-c2nc(NCCc3c[nH]c4ccccc34)c3ncn(C(C)C)c3n2)c1; inactive
CCN(c1cc(-c2ccc(CN3CCOCC3)cc2)cc(C(=O)NCc2c(C)cc(C)[nH]c2=O)c1C)C1CCOCC1 + Cc1cncc(-c2nc(NCCc3c[nH]c4ccccc34)c3ncn(C(C)C)c3n2)c1; inactive

Next up:
Which outcome was assigned to CCN(c1cc(-c2ccc(CN3CCOCC3)cc2)cc(C(=O)NCc2c(C)cc(C)[nH]c2=O)c1C)C1CCOCC1 + CC(CO)NC(=O)c1cc(-c2ccc(Cl)cc2)nn(-c2cnn(C)c2)c1=O in this test?
inactive

###

viability, T/C: recorded values
Tested on: 743489-274-T-PDC complex spheroid growth
test_description: Anticancer human tumor 743489-274-T-PDC cell line growth inhibition [AhR];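 note: spheroids exposed to agents for 7 days before readout; 100% = DMSO vehicle control wells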
measurement_parameters: second compound 1 µM; first compound 0.00949 µM; active compounds read low
All answers are understood in %, so give the number only.

Worked cases, viability, T/C given:
O=C(C=Cn1cnc(-c2cc(C(F)(F)F)cc(C(F)(F)F)c2)n1)NNc1cnccn1 + CC(CO)NC(=O)c1cc(-c2ccc(Cl)cc2)nn(-c2cnn(C)c2)c1=O; 94
CCN(c1cc(-c2ccc(CN3CCOCC3)cc2)cc(C(=O)NCc2c(C)cc(C)[nH]c2=O)c1C)C1CCOCC1 + CC(CO)NC(=O)c1cc(-c2ccc(Cl)cc2)nn(-c2cnn(C)c2)c1=O; 104

Data point: CCc1c2c(nc3ccc(O)cc13)-c1cc3c(c(=O)n1C2)COC(=O)[C@]3(O)CC + CC(CO)NC(=O)c1cc(-c2ccc(Cl)cc2)nn(-c2cnn(C)c2)c1=O ; viability, T/C = 91.6

###

System: 743489-274-T-PDC complex spheroid growth
test_description: Anticancer human tumor 743489-274-T-PDC cell line growth inhibition [AhR];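 note: spheroids exposed to agents for 7 days before readout; 100% = DMSO vehicle control wells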
measurement_parameters: second compound 0.1 µM; first compound 10 µM; active compounds read low
viability, T/C by entry:
Write the value in % as a bare number.

COc1cc(Nc2ncc3c(n2)-c2ccc(Cl)cc2C(c2c(F)cccc2OC)=NC3)ccc1C(=O)O + Cc1cncc(-c2nc(NCCc3c[nH]c4ccccc34)c3ncn(C(C)C)c3n2)c1; 91.8
COc1cc(C2c3cc4c(cc3C(OC3OC5COC(C)OC5C(O)C3O)C3COC(=O)C23)OCO4)cc(OC)c1O (stereo unspecified) + CC(CO)NC(=O)c1cc(-c2ccc(Cl)cc2)nn(-c2cnn(C)c2)c1=O; 97
CC1COCCN1c1cc(C2(S(C)(=N)=O)CC2)nc(-c2ccnc3[nH]ccc23)n1 (stereo unspecified) + CC(CO)NC(=O)c1cc(-c2ccc(Cl)cc2)nn(-c2cnn(C)c2)c1=O; 96.7
Nc1ccn(C2OC(CO)C(O)C2(F)F)c(=O)n1 (stereo unspecified) + Cc1cncc(-c2nc(NCCc3c[nH]c4ccccc34)c3ncn(C(C)C)c3n2)c1; 67.9

Form: compound = CC(C)c1c(-c2ccccc2)nc2c(C#N)c[nH]n2c1=O + CC(CO)NC(=O)c1cc(-c2ccc(Cl)cc2)nn(-c2cnn(C)c2)c1=O ; viability, T/C = 102

So, COc1cccc2c1C(=O)c1c(O)c3c(c(O)c1C2=O)CC(O)(C(=O)CO)CC3OC1CC(N)C(O)C(C)O1 (stereo unspecified) + Cc1ccccc1N=Nc1ccc(NC(=O)c2ccnn2C)c(C)c1 ? Its viability, T/C was 25.6

// CC1COCCN1c1cc(C2(S(C)(=N)=O)CC2)nc(-c2ccnc3[nH]ccc23)n1 (stereo unspecified) + Cc1ccccc1N=Nc1ccc(NC(=O)c2ccnn2C)c(C)c1 : viability, T/C value = 102

// sample COc1cccc2c1C(=O)c1c(O)c3c(c(O)c1C2=O)CC(O)(C(=O)CO)CC3OC1CC(N)C(O)C(C)O1 (stereo unspecified) + CC(CO)NC(=O)c1cc(-c2ccc(Cl)cc2)nn(-c2cnn(C)c2)c1=O , its viability, T/C was 40.6

Please fill in: viability, T/C reported for COc1cc(C2c3cc4c(cc3C(OC3OC5COC(C)OC5C(O)C3O)C3COC(=O)C23)OCO4)cc(OC)c1O (stereo unspecified) + Cc1ccccc1N=Nc1ccc(NC(=O)c2ccnn2C)c(C)c1 = 79.9

Looking up COc1ccc([C@@H](O)c2cc(-c3ncnc4cc(N5CCOCC5)ccc34)c(F)cc2Cl)nn1 + CC(CO)NC(=O)c1cc(-c2ccc(Cl)cc2)nn(-c2cnn(C)c2)c1=O , I see its viability, T/C listed as 28.8

Briefly, viability, T/C measured for CC1(C)CCC(CN2CCN(c3ccc(C(=O)NS(=O)(=O)c4ccc(NCC5CCOCC5)c([N+](=O)[O-])c4)c(Oc4cnc5[nH]ccc5c4)c3)CC2)=C(c2ccc(Cl)cc2)C1 + Cc1cncc(-c2nc(NCCc3c[nH]c4ccccc34)c3ncn(C(C)C)c3n2)c1 : 113
